METHOD DESCRIPTION: Cell Viability - LYMP1-003 - Assay at 40 hr (AID 964); also: nearly all actives have a fitted effect of over 60% in size
CONDITION NOTES: LYMP1-003 lymphoblastoid viability; series mostly up to 92.2 µM
Inconclusive results are not listed. Active and inactive are the calls of the source. Calls follow the shape of the dose curve; as a rule, active = well fitted cell-killing curve with a large enough effect; inconclusive = small, poorly fitted or top-dose-only effect; inactive = flat fitted curve, though single readings scatter.
Outcome codes: active, inactive

* Cc1ccccc1C(=O)O | inactive
* Nc1c(Cl)cc(Cl)cc1Cl | inactive
* O=[N+]([O-])c1ccc(NCCO)c(OCCO)c1 | inactive
* CCOCCOCC | inactive
* Cc1cc(C)cc([N+](=O)[O-])c1 | inactive
* CNC(=O)N(c1ccccc1)c1ccccc1 | inactive
* CC1=C(/C=C/C(C)=C/C=C/C(C)=C\C=O)C(C)(C)CCC1 | active
* CCCCC(C=O)CC (centres undefined) | inactive
* O=Nc1ccc(NO)cc1 | inactive
* CCC=O | inactive
* CC(C)C=O | inactive
* CC=C(Cl)Cl | inactive
* CC(=O)OCc1ccco1 | inactive
* O=[N+]([O-])c1c(Cl)cc(Cl)cc1Cl | inactive
